viability at 28.5 h, 10 µM listing for selected molecules.
TEST_SUMMARY: in vitro
RUN_PARAMETERS: human, hela cells, % viability
Output spec: scalar in %, unitless text.

# count of solved cases: 4
MOLECULE | UNIT_STRING | viability at 28.5 h, 10 µM
Cc1cc(Cl)c(S(=O)(=O)Nc2ccc(C#N)cc2)cc1OCC(N)=O [CBK266560] | % | 112
c1ccc2c(OCc3nc4c5c6c(sc5ncn4n3)CCCCC6)cccc2c1 [CBK264151] | % | 99.6
Cc1ccc(S(=O)(=O)N=C2NCN(C)CN2)cc1 [CBK261972] | % | 94.3
O=C(NCCCOc1ccccc1)N1CCN(S(=O)(=O)c2ccc(C(F)(F)F)cc2)CC1 [CBK296686] | % | 87.9

Notebook: NCC1OCCc2ccccc21 (centres unmarked) [CBK027717] , viability at 28.5 h, 10 µM read as 108

###

TEST_SUMMARY: in vitro
RUN_PARAMETERS: human, hela cells, % viability
viability at 28.5 h, 10 µM listing for selected compounds.
Output spec: scalar in %, unitless text.

# count of solved cases: 5
COMPOUND | viability at 28.5 h, 10 µM [%]
C(=C\c1ccccc1)/CSc1nnc(-c2cnccn2)n1Cc1ccco1 | 119
CC(C)(C)c1ccc(C(=O)NCCNC(=O)c2nonc2N)cc1 | 89.5
COc1ccc(C(=O)CSc2nnc(C(O)c3ccccc3)n2-c2ccccc2)cc1 (stereo not shown) | 109
COCCn1ccnc1C1CCN(C(=O)COc2cccc(F)c2)CC1 | 91.3
COc1ccc(/C=C2\S/C(=N/N=C/c3ccc(OC)cc3)N(c3ccc(O)cc3)C2=O)cc1 | 87.7

As a next step, examine the compound that follows.
Notebook: COc1cc(C(=O)O)ccc1Oc1cnn(-c2ccccc2)c(=O)c1Cl , viability at 28.5 h, 10 µM read as 94.9

###

TEST_SUMMARY: in vitro
RUN_PARAMETERS: human, hela cells, % viability
viability at 28.5 h, 10 µM listing for selected compounds.

Notebook: O=C(NCc1ccccc1OC1CCNC1)C1CCCO1 (centres unmarked) [CBK024503T] , viability at 28.5 h, 10 µM read as 96.9%

Notebook: O=C(O)c1cccc(Sc2nccc(C(F)(F)F)n2)c1 , viability at 28.5 h, 10 µM read as 90.2%

###

viability at 28.5 h, 10 µM listing for selected molecules.
TEST_SUMMARY: in vitro
RUN_PARAMETERS: human, hela cells, % viability
Reply with the number and its unit after it.

Notebook: COc1cccc(/C=C2\SC(=S)N(CC(=O)NNC(=O)c3ccccc3O)C2=O)c1 [CBK262202] , viability at 28.5 h, 10 µM read as 91.1%

Notebook: Cc1nc(S(=O)(=O)N2CCC(OCC3CC3)C2)cn1C (centres unmarked) [CBK304668] , viability at 28.5 h, 10 µM read as 102%

Notebook: Cn1c(=O)c2c(ncn2CC(=O)Nc2ccc(OCc3ccccc3)cc2)n(C)c1=O [CBK130478] , viability at 28.5 h, 10 µM read as 89.8%

Notebook: O=C1NCCN1C1CCN(c2ncnc3ccccc23)CC1 [CBK304896] , viability at 28.5 h, 10 µM read as 83.1%

Notebook: CCn1c(C)nnc1SCCNC(=O)c1cnc(N(C)C)nc1C [CBK307135] , viability at 28.5 h, 10 µM read as 93%
